Target: T1, UNK ZnF1-3 (human, UniProt Q9C0B0 31-174)
T1 sequence: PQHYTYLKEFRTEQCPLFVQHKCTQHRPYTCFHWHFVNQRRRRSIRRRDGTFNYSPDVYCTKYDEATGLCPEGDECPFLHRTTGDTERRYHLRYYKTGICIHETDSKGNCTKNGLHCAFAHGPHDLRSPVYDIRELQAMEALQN
Experiment: nsRBNS (natural sequence RNA bind-n-seq); RBNS binding buffer (assumed for nsRBNS): 25 mM Tris pH 7.5, 150 mM KCl, 3 mM MgCl2, 0.01% Triton X-100, 500 ug/ml BSA, 20 U/ml SUPERase-In, 4 C; UNK is unkempt and MSI1 is Musashi-1; names of the RNAs are library labels; protein concentration not given here; high values mean tight binding
Whole data set: some 24,000 sequences, median “enrichment r” near 0.99, cut for the highest 2% near 3.7. Shown is part of a subset that was picked to be rich in the highest values.
quantityName: binding signal
A complete answer gives the number and then names the unit.

>>> datavalue("chr2:113333244:113333245:+_ENSG00000125630_ENST00000417433|hu_hu|FALSE|FALSE (ssRNA) RNA: GGGAGUUCUACAGUCCGACGAUCAACAUCAAGUUAAACAACAUCCAGUUUCACUUUGAUGUUCAUAGCUGCCAGUUCAGCUACAAAAUACCGAAAAACAUAAGGCACAGAAACAGUAUCGAUAGUGUCACUGCGACUACACAGCAACAGAGGAUUGAGCAUCA")
"0.877 enrichment R"
>>> datavalue("chr4:101271765:101271766:+_ENSMUSG00000028528_ENSMUST00000094953|mus_mus|motif|central (ssRNA) RNA: GGGAGUUCUACAGUCCGACGAUCAGACUUGGGUGACAAGUUGUAUACUGUGUAGUGGUCAAGAUGUCUGGAAUCCAAAAAGCGGCGGAUGUCAUCAACCUGAUUCCUGAAUCCUAUGUCAACACUAUCCACAGGAAAGGACAUCAACAGAGGAUUGAGCAUCA")
"0.93 enrichment R"

Lab note: next binder to report on.
Prompt line: Given chr14:78183846:78183847:+_ENSG00000119705_ENST00000557342|hu_hu|hu_hu_hu_mus_False|78_88 (ssRNA) RNA: GGGAGUUCUACAGUCCGACGAUCUCUCAGAAAUCUUUCUUCAUCAGCAUCAUCAGAUGUUUGCGGAGCCUUUGCUCUUUGAGCUUGAACGUGGAUCUAUGGGAGGGAAAGCACUGUCAGAAAAGGUAAUUUUUUUUUUAAAGACAACAGAGGAUUGAGCAUCA , state its recorded binding signal.
Response line: 1.96 enrichment R
